- System: Sodium channel protein type 9 subunit alpha (Homo sapiens)
- Sequence (Q15858 whole entry): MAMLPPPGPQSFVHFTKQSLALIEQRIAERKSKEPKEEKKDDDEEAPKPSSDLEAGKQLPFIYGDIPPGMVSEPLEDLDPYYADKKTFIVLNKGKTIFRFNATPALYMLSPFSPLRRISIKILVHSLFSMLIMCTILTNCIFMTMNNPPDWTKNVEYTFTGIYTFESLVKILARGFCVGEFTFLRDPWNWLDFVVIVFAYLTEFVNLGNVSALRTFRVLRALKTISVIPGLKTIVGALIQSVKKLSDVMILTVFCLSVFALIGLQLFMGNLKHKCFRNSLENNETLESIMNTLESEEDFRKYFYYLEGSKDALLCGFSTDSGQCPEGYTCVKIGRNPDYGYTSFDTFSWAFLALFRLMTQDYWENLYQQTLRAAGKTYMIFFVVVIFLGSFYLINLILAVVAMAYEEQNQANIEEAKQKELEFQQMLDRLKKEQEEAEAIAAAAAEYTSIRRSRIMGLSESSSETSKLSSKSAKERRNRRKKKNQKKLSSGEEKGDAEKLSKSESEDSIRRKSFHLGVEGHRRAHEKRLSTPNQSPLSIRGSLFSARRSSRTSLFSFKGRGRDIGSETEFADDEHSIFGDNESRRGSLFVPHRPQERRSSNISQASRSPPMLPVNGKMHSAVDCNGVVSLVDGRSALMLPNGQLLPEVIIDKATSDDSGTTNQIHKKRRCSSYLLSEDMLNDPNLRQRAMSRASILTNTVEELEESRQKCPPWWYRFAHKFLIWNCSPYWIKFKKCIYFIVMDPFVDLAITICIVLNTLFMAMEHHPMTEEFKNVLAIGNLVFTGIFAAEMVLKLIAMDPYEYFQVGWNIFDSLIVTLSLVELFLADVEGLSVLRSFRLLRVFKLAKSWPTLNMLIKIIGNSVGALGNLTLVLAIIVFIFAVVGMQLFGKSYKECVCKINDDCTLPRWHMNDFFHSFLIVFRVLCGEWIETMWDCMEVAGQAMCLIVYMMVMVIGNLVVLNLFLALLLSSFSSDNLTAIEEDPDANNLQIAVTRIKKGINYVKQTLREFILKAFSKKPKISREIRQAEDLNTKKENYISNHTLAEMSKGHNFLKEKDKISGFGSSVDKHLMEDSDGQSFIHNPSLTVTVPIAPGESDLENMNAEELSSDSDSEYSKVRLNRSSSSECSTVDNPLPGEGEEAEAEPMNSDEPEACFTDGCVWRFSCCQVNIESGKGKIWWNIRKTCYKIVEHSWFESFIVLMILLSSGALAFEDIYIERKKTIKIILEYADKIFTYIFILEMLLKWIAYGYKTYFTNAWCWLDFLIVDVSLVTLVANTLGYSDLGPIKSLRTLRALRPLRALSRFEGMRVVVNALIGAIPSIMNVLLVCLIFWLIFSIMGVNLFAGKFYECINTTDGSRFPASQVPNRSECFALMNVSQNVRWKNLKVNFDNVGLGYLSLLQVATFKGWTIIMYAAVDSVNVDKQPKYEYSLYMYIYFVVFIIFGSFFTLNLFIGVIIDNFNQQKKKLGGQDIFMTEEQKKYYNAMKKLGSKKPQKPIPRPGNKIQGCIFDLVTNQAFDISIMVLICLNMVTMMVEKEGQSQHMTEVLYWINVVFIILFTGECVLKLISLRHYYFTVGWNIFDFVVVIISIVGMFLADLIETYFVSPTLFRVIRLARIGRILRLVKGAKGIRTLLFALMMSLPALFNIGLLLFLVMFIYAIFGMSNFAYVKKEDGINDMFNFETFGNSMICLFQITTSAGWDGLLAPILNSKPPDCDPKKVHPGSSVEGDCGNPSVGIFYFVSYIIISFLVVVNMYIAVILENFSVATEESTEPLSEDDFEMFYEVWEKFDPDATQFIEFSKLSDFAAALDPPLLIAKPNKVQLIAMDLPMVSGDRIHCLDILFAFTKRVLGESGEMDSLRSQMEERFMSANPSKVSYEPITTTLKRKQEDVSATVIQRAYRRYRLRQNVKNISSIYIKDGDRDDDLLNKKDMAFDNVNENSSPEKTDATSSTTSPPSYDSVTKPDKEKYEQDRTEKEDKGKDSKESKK
- Assay comment: Blockade of Nav1.7 by FLIPR TETRA sodium dye assay in presence of KCl salt
Measured property: IC50 (nM)
Respond with the bare value in nM.

Q: Query: IC50; subject: "O=C(N[C@@H](CO)C(=O)Nc1cccc(-c2ccc(Oc3ccc(F)cc3)cc2)n1)c1ccccn1"
A: 140

Cited source: ChEMBL document CHEMBL2151011
